- system.name: BRD4 (BDI_K57-E168) (Homo sapiens, UniProt O60885)
- Construct: BD1: amino acids K57-E168; made in house
- protocol.summary: TR-FRET bromodomain binding assay, first bromodomain of BRD4
- experimental.parameters: TR-FRET assay protocol G (compound 0.92 μM-15 pM); 100 nM probe
measurement.label: Ki (nM)

compound: CCCCN1Cc2c[nH]c3c(=O)n(C)cc(c23)-c2cc(F)cc(F)c21
units: nM
Ki: 1.37

A: CCCCC(CC)COC(=O)N1Cc2c[nH]c3c(=O)n(C)cc(c23)-c2cc(CS(C)(=O)=O)ccc21 (stereo not shown)
B: Cn1cc2c3c(c[nH]c3c1=O)CN(C1CCOCC1)c1ccc(CS(C)(=O)=O)cc1-2
C: Cn1cc2c3c(c[nH]c3c1=O)C(CCC(=O)N1CCN(C(=O)OC(C)(C)C)CC1)N(c1ccc(F)cc1F)c1ccc(CS(C)(=O)=O)cc1-2 (stereo not shown)
Rank the items in ascending order with respect to Ki. The reply should contain the labels ordered as requested. B, A, C

---

- system.name: BRD4 (BDII_E352-M457) (Homo sapiens)
- Construct: protocol; made in house
- protocol.summary: TR-FRET bromodomain binding assay, second bromodomain of BRD4
- experimental.parameters: TR-FRET assay protocol G (compound 0.92 μM-15 pM); 30 nM probe
measurement.label: Ki (nM)

In the examples that follow, each entry is paired with its recorded Ki.
molecule: Cn1cc2c3c(c[nH]c3c1=O)CN(C(=O)C1CC1)c1ccc(CS(C)(=O)=O)cc1-2
measurement.label: Ki
obs.value: 2.71
//
molecule: Cn1cc2c3c(c[nH]c3c1=O)CN(CC1CCOC(C)(C)C1)c1ccc(CS(C)(=O)=O)cc1-2 (racemic)
measurement.label: Ki
obs.value: 11

P: Cn1cc2c3c(c[nH]c3c1=O)C(c1ccccc1)N(c1ccc(F)cc1F)c1ccc(CS(C)(=O)=O)cc1-2 (stereo not shown) [Example 216]
Q: Cn1cc2c3c(c(C#N)[nH]c3c1=O)CN(c1ccc(F)cc1F)c1ccc(CS(C)(=O)=O)cc1-2
Higher Ki: P or Q ? # answer = label of selected item P

---

- System: breast cancer cell line MX-1
- protocol.summary: MX-1 cell line proliferation assay
- Format: cell-based
- experimental.parameters: MX-1 cells, 3-day proliferation assay, Cell Titer Glo; read-out: Cellular proliferation: EC50
measurement.label: EC50 (µM)

compound: Cn1cc2c3c(c[nH]c3c1=O)C(CNC(=O)c1ccccc1)N(c1ccc(F)cc1F)c1ccc(CS(C)(=O)=O)cc1-2 (stereo not shown)
system.name: breast cancer cell line MX-1
measurement.label: EC50
obs.value: 0.24
--
compound: Cn1cc2c3c(c[nH]c3c1=O)CN(CC1CC1)c1c(F)cc(F)cc1-2
system.name: breast cancer cell line MX-1
measurement.label: EC50
obs.value: 0.00863
--
compound: Cc1ccc(OC(=O)N2Cc3c[nH]c4c(=O)n(C)cc(c34)-c3cc(CS(C)(=O)=O)ccc32)cc1
system.name: breast cancer cell line MX-1
measurement.label: EC50
obs.value: 0.00181

1: Cn1cc2c3c(c[nH]c3c1=O)CN(Cc1cccnn1)c1ccc(CS(C)(=O)=O)cc1-2
2: Cn1cc2c3c(c(C(N)=O)[nH]c3c1=O)CN(c1ccc(F)cc1F)c1ccc(CS(C)(=O)=O)cc1-2
3: CNCCCC1c2c[nH]c3c(=O)n(C)cc(c23)-c2cc(CS(C)(=O)=O)ccc2N1c1ccc(F)cc1F (stereo not shown)
4: COc1ccccc1OC(=O)N1Cc2c[nH]c3c(=O)n(C)cc(c23)-c2cc(CS(C)(=O)=O)ccc21
List from greatest to least EC50. The reply should contain the labels ordered as requested. 1, 3, 4, 2
(1: 0.845 µM, 3: 0.239 µM, 4: 0.0141 µM, 2: 0.00654 µM)
